- Test system: EKVX NSCLC
- Assay details: NCI tumour cell line growth inhibition, 48 h
Measured metric: GI50

Q. What does the data say about its GI50? Entry: CCc1ccc([OH2+])c(C(=O)[O-])c1.CCc1ccc([OH2+])c(C(=O)[O-])c1.CCc1ccc([OH2+])c(C(=O)[O-])c1.CCc1ccc([OH2+])c(C(=O)[O-])c1.[Cu+2].[Cu+2]
A. > 100 µM

Q. # lookup: GI50 of ClC/C=C/CSc1ncnc2nc[nH]c12
A. > 100 µM

Q. Sample COC(=O)[C@]12CC[C@@H](C)[C@H](C)[C@@H]1C1=CC[C@@H]3[C@@]4(C)C[C@@H](OC(C)=O)[C@H](OC(C)=O)[C@@](C)(COC(C)=O)[C@@H]4[C@H](O)C[C@@]3(C)[C@]1(C)CC2 — what was its GI50?
A. 2.14 µM
